TESTED_ON: NEDD8-conjugating enzyme Ubc12 (Homo sapiens) + NEDD8-activating enzyme E1 regulatory subunit (Homo sapiens) (UniProt P61081+Q13564)
Sequence (P61081 whole entry, looked up): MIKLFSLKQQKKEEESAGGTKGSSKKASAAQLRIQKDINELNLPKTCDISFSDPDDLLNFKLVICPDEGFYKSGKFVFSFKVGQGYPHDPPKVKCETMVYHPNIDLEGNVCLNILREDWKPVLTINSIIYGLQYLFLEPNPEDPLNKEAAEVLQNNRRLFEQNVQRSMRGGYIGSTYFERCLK
Sequence (Q13564 whole entry, looked up): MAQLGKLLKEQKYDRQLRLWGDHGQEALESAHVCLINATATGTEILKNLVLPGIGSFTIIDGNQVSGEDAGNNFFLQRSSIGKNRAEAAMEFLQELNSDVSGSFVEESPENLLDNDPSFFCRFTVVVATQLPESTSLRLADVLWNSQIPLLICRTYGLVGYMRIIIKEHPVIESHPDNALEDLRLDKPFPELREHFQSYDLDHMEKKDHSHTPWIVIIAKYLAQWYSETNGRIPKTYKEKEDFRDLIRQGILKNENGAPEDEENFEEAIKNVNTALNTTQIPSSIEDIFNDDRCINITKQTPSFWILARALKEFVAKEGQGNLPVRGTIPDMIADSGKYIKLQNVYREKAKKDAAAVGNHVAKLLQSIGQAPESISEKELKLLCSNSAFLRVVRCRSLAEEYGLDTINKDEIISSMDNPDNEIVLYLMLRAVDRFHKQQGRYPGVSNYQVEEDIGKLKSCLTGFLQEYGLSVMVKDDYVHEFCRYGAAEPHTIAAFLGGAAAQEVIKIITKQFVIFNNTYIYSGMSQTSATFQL
EXPERIMENT: inhibitors of cullin neddylation, primary screen, biochemical, TR-FRET, uHTS, NAE and Ubc12 (AID 651699)
EXPERIMENTAL_CONDITIONS: at 25 µM
The whole screen tested about 360,000 compounds, of which about 2,100 (0.58%) were called active. No stated cut-off is given here; in the data, active means inhibition above about 36%; inactive means the rest. This excerpt belongs to a sample that is enriched for actives.
Choose one outcome from this list and give only that: Yes = active, No = inactive

Solved entries:
Request: Outcome logged for Cc1cc(/C=C2/C(=N)N3C(=NC2=O)SN=C3S(C)(=O)=O)c(C)n1-c1ccccc1 in this assay:
Response: Yes

Request: Outcome logged for CC1=CC2=NC(=O)/C(=C/c3coc4ccccc4c3=O)C(=N)N2O1 in this assay:
Response: No

Request: Outcome logged for O=C(CCN1C(=O)c2ccccc2C1=O)C1=NN[C@@H]2C(=O)N(c3ccc(F)cc3)C(=O)[C@H]12 in this assay:
Response: No

Request: Outcome logged for COCCNC(=O)c1ccc2nc(Cc3ccc(OC)c(OC)c3)oc2c1 in this assay:
Response: No

Request: Outcome logged for CCOC(=O)C1=C(O)/C(=C/c2cc(C)n(-c3ccccc3)c2C)N=C1C in this assay:
Response: No

Request: Outcome logged for O=C(Nc1cc(F)ccc1F)c1ccc2c(=O)n3c(nc2c1)CCC3 in this assay:
Response: No

Request: Outcome logged for Cc1cc(C)c(C)c(S(=O)(=O)N2CCN(C(=O)c3ccc4c(=O)n5c(nc4c3)CCC5)CC2)c1C in this assay:
Response: No

Request: Outcome logged for O=C(CCN1C(=O)C2C3CCC(C3)C2C1=O)Nc1ccc(Cl)cc1Cl (stereo unspecified) in this assay:
Response: No

Request: Outcome logged for Cc1ccc(-n2nc3c(c2NC(=O)c2ccc4c(c2)OCO4)CSC3)c(C)c1 in this assay:
Response: No

Request: Outcome logged for CC(C)=CCc1ccc(O)c(=O)cc1C(C)C in this assay:
Response: No

Others:
Request: Outcome logged for Cc1cccc(N2CCN(C(=O)CN(C)S(=O)(=O)c3ccc4c(c3)CCC(=O)N4)CC2)c1C in this assay:
Response: No

Request: Outcome logged for O=S(=O)(c1cccc(Cn2nnc(-c3ccc(F)cc3)n2)c1)N1CCOCC1 in this assay:
Response: No

Request: Outcome logged for COCCNC(=O)Nc1ccc2nc(-c3ccco3)c(-c3ccco3)nc2c1 in this assay:
Response: Yes

Request: Outcome logged for COc1cc(F)c(C2=CC(=O)CC(C)(C)C2)cc1F in this assay:
Response: No

Request: Outcome logged for CN(C)c1ccc2c(=O)[nH][nH]c(=O)c2c1 in this assay:
Response: No

Request: Outcome logged for Cc1ccc(N/N=C2\COC(C)(C)CC2=O)cc1 in this assay:
Response: No

Request: Outcome logged for COc1ccc(Cl)cc1NC(=O)CN(C)C(=O)c1cn(-c2ccccc2)nc1-c1cccs1 in this assay:
Response: No

Request: Outcome logged for COc1cccc(NC(=O)CN(C)C(=O)/C=C/c2cn(-c3ccccc3)nc2-c2cccs2)c1 in this assay:
Response: Yes

Request: Outcome logged for C=CCNC(=O)c1ccc2c3n(nc2c1)-c1ccc(C)cc1CO3 in this assay:
Response: Yes

Request: Outcome logged for Cc1cnc(CN(C)C(=O)C2CCC(=O)N(CCc3cccc(F)c3)C2)[nH]1 (stereo unspecified) in this assay:
Response: No

Request: Outcome logged for O=C(c1ccc(Cl)cc1)N1N=C(c2ccccn2)CC1(O)C(F)(F)F (stereo unspecified) in this assay:
Response: Yes
